Please go through the items and note down their cell count.
test: inhibitors of TNFa-induced NFkB p65 translocation, primary screen, imaging, HUVEC, MLSMR starter and 10KST1 sets (AID 438);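 also: compound added about 3h40 before a 20 min TNFalpha stimulation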
assay_conditions: HUVEC TNFa-induced p65 nuclear translocation; measured here: nuclei count (cytotoxicity indicator), at 2.08 µM
// no unit string in output, number only

According to the records, this compound O=C(O)C(O)c1ccco1 (configuration not stated) displays cell count of 365

Entry COc1ccc(S(=O)(=O)Nc2cc(C)on2)cc1OC , cell count reported as 455

cell count for CCN(CC)C(=O)Cn1c(=O)n(Cc2ccccc2Cl)c2c1c(=O)n(C)c(=O)n2C is 678

// sample CCc1nnc(NC(=O)COC(=O)CN2C(=O)c3ccccc3C2=O)s1 , its cell count was 375

So, O=C(c1csc2ccccc12)n1cccn1 ? Its cell count was 327

Looking up O=C(CSc1nnc(Cc2cc(=O)[nH]c(=O)[nH]2)n1-c1ccccc1)NCC1CCCO1 (configuration not stated) , I see its cell count listed as 398

Sample Cc1cccc(CN2CCC(CNC(=O)C3CCCN(S(=O)(=O)c4cnc[nH]4)C3)CC2)c1 (configuration not stated) ; cell count observed: 706

Entry CCC1CCCN1Cn1cnc2c([nH]c3ccc(OC)cc32)c1=O (configuration not stated) , cell count reported as 602

Record summary for CN(C)CCCNCCCCNC(=O)/C=N/O : reported cell count = 458

# compound C=CCN(C)CCCNC(=O)/C=N/O ; its cell count = 585

Value of measured cell count for the entry CSc1cc(C)nc(N(C)C(C)=O)n1 : 672

// cell count lookup, compound = CN(C)c1ccc(NC(=O)c2cc3c(=O)n4ccccc4nc3n2C)cc1 , result: 216

---

test: inhibitors of E-selectin induction by TNFa, primary screen, imaging, HUVEC, immunofluorescence, MLSMR starter and 10KST1 sets (AID 487);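 also: 100% = median nuclei count of all wells on the same plate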
assay_conditions: HUVEC TNFalpha-induced E-selectin immunofluorescence imaging, at 2 µM; measured here: cell number, toxicity
quantity_name: nuclei count (%)
All answers are understood in %, so give the number only.

Measured nuclei count of N#C/C(=C(/O)CN1CCOCC1)c1nc2ccccc2s1 : 129

Short answer for O=C(O)CCn1[nH]c(=O)ccc1=O : nuclei count was 84.3

The reported value for O=C1CCCc2nc(N3CCCCC3)sc21 in terms of nuclei count is 86.9

Notebook: COc1cccc(Cn2c(-c3nonc3N)nc3ccccc32)c1 , nuclei count read as 113

nuclei count in this record for CC1Cc2nc(SCC(=O)Nc3nccs3)n(C)c(=O)c2S1 (centres undefined) : 111

nuclei count in this record for CCN(CC)S(=O)(=O)c1ccc(NC(=O)Cn2cnc3ccccc3c2=O)cc1 : 108

CSc1nc(N)nc(SCCS(=O)(=O)c2ccc(Cl)cc2)c1C#N yielded nuclei count of 113

// recorded nuclei count for CCc1ccc2[nH]c(=O)c(C(c3nnnn3CC3CCCO3)N3CCCc4ccccc43)cc2c1 (centres undefined) : 97.3

For reference, reported nuclei count for CCOC(=O)N1CCN(CC(O)COc2ccccc2C(C)CC)CC1 (centres undefined) stands at 122

Sample CCOC(=O)C1=C(C)NC(=O)C1CC(=O)Nc1ccccc1 (centres undefined) ; nuclei count observed: 139

For reference, reported nuclei count for CCOC(=O)c1sc(NC(=O)c2noc3c2CCCC3)c(C(=O)OCC)c1C stands at 87.6

Per the records, this compound ( CCOC(=O)c1[nH]c2ccccc2c1N=CN(CC)CC ) has nuclei count equal to 160

Per the record, CCCCOC(=O)c1ccc(NC(=O)CSc2nncn2C)cc1 has nuclei count of 168

The measured nuclei count associated with c1ccc(-n2ncc3c(NC4CCCCCC4)ncnc32)cc1 reads 122

For this compound ( CC(=O)Nc1cccc(Oc2nc(C)cc(C)c2C#N)c1 ), measured nuclei count is 124

The recorded nuclei count for entry CCC(=NC(CC)CO)C1=C(O)CC(C)(C)CC1=O (centres undefined) equals 171

Memo: CCCN(CCC)S(=O)(=O)c1ccc(NS(C)(=O)=O)cc1 , reported nuclei count: 107

nuclei count in this record for Cn1c(=O)c2c(nc(NCc3ccc4c(c3)OCO4)n2Cc2ccccc2Cl)n(C)c1=O : 104

nuclei count reported for this compound CC1(C)OC(=O)C(=CNC(CCC(N)=O)C(=O)O)C(=O)O1 (centres undefined) : 108

Please fill in: nuclei count reported for CCOc1cc(-c2nc(-c3ccc(C)nc3OCC)no2)cc(OCC)c1OCC = 117

The compound identified as CCOc1ccc(NC(=O)C(C)Sc2nnc(C)n2C)cc1 (centres undefined) registered its nuclei count at 119

Cn1c(=O)c2nc(Cl)n(Cc3ccc(Cl)cc3Cl)c2n(C)c1=O has a reported nuclei count of 110

Measured nuclei count of CCc1ccc(CCC(=O)Nc2ccc(C)c(C)c2)o1 : 99.6

Lab book: nuclei count of Cn1c(Cn2cnc(Cl)c2Cl)nc2ccccc21 noted as 138
